- Assay remarks: Antioxidant activity assessed as superoxide anion radical scavenging activity at 0.1 mM after 10 mins by tetrazolium dye assay
- Assay type: functional
# reported Activity; entries follow
Quick note: number first, unit second.

Q: Look up and state reported Activity for CC(C)(C)/[N+]([O-])=C/c1c[nH]c2ccccc12
Ans: 15%

Q: Look up and state reported Activity for COc1ccc2c(c1)cc(/C=[N+](\[O-])C(C)(C)C)n2C
Ans: 5%

Q: Look up and state reported Activity for COc1cc(Br)c(/C=[N+](\[O-])Cc2ccccc2)cc1OC
Ans: 16%

Q: Look up and state reported Activity for CC(C)(C)/[N+]([O-])=C/c1ccc(OCCCO[N+](=O)[O-])cc1
Ans: 2%

Q: Look up and state reported Activity for COc1cc(/C=[N+](\[O-])Cc2ccccc2)c(Br)cc1O
Ans: 3%

Q: Look up and state reported Activity for CC(C)(C)/[N+]([O-])=C/c1cccnc1Cl
Ans: 5%

Q: Look up and state reported Activity for O=C(O)/C=C/c1ccc(O)c(O)c1
Ans: 15%

Q: Look up and state reported Activity for C/[N+]([O-])=C/c1ccccc1
Ans: 8%

Q: Look up and state reported Activity for CC(C)(C)c1cc(/C=[N+](\[O-])Cc2ccccc2)cc(C(C)(C)C)c1O
Ans: 8%

Q: Look up and state reported Activity for Cc1ccc2nc(Cl)c(/C=[N+](\[O-])C(C)(C)C)cc2c1
Ans: 12%

Q: Look up and state reported Activity for CC(C)(C)/[N+]([O-])=C/c1ccccc1
Ans: 15%

Q: Look up and state reported Activity for CC(C)(C)/[N+]([O-])=C/c1cccnc1Br
Ans: 10%

Q: Look up and state reported Activity for CC(C)(C)/[N+]([O-])=C/c1ccc(OCCO[N+](=O)[O-])cc1
Ans: 19%

Q: Look up and state reported Activity for COc1cc(Br)c(/C=[N+](\[O-])C(C)(C)C)cc1OC
Ans: 15%

Q: Look up and state reported Activity for CC(C)(C)/[N+]([O-])=C/c1cccc(C(F)(F)F)c1
Ans: 29%

Q: Look up and state reported Activity for [O-]/[N+](=C\c1ccccc1)Cc1ccccc1
Ans: 24%

Q: Look up and state reported Activity for COc1cc(Br)c(/C=[N+](\[O-])C(C)(C)C)cc1O
Ans: 11%

Q: Look up and state reported Activity for Cc1ccc2nc(Cl)c(/C=[N+](\[O-])Cc3ccccc3)cc2c1
Ans: 23%

Q: Look up and state reported Activity for COc1cc(Br)c(/C=[N+](\[O-])Cc2ccccc2)cc1O
Ans: 6%

Q: Look up and state reported Activity for COc1cc(/C=[N+](/C)[O-])ccc1O
Ans: 11%
